The measurements presented in this section are drawn from the nanobody polyreactivity screen of Harvey et al. (2022).

# method.description: yeast display, Sf9 membrane polyspecificity reagent, FACS + sequencing; frameworks hold sequencing errors
readout.name: polyreactivity (PSR sort gate)

These recorded examples may help you get a feel for the data.
QVQLVESGGGLVQAGGSLRLSCAASGSIFYVNAMGWYRQAPGKERELVAVNADSVKGRFTISRDNAKNTVYLQMNSLKPEDTAVYYCAAGVNSTTRIYDYWGQGTQVTVSS ... low polyreactivity
QVQLVESGGGLVQAGGSLRLSCAASGFTFLNYAMGWYRQAPGKERELVAAISFSTGRTYYADSVKGRFTISRDNAKNTVYLQMNSLKPEDTAVYYCYVLHRSDSGYYYRYDYWGQVTQVTVSS ... high polyreactivity
QVQLVESGGGLVQAGGSLRLSCAASGRIFRVYAMGWYRQAPGKERELVAAISSSGSSTYYADSVKGRFTISRDNAKYTVYLQMNSLKPEDTAVYYCAARGYDISSRYDYWGQGTQVTVSS ... high polyreactivity
QVQLVESGGGLVQAGGSLRLSFAASGRIFKRNTKRWYRQAPGKETELVAAITYSGITYYADSVKGRFTISRDNAKNTFYLQMNSLKPEDTAVYYCDKVLYPIGSPRFEYWGQGTQVTVSS ... low polyreactivity

Next item in the queue.
Could you tell me which polyreactivity (PSR sort gate) is on file for QVQLVESGGGLVQAGGSLRLSCAASGSIFKVYAMGWYRQAPGKERELVASISYSGGSTYYADSVKGRFTISRDNAKNTVYLQMNSLKPEDTAVYYCNADTITYQGYDYGYWGQGTQVTVSS ?
low polyreactivity

---

# method.description: yeast display, Sf9 membrane polyspecificity reagent, FACS + sequencing; frameworks hold sequencing errors
readout.name: polyreactivity (PSR sort gate)

QVHLVESGGGLVQAGGSLRLRCAASGSNLESYAMGWYRQAPGKEMELVADITYDGGITYYADSVKGRFTISRDNAKNTVYLQMNSLKPEDTAVYYCATEYRYWQSDYSTYFPYDYWGQGTQVTVSS ... low polyreactivity
QDQLVESGGGLDQAGRSLRLSCAASGFTYRPYAMGWYRQEPGKERELVAAISSIGSTYYADSVKGRFTISRDNAKYTVYLPMNSLNPEDTAVYYCIADSYVRSTIFDHWGQGTQVTVSS ... low polyreactivity

---

# method.description: yeast display, Sf9 membrane polyspecificity reagent, FACS + sequencing; frameworks hold sequencing errors
readout.name: polyreactivity (PSR sort gate)

QVQLVESGGGLVQAGGSLRLSCAASGFILGYNAMGLYRQAPGKERELVAAINGGSGSTYYADSVKGRFTISRDNAKNTVYLQMNSLKPEDTAVYYCAAEVTWAFFYERDYWGQGTQVTVSS ... high polyreactivity
QVQLVESGGGLVHAGGSLRLSCASSGSTFAQYALGWYRPAPGKDREFVAAITRGGGRTYYADSVNGRFTISRDNAKYSVYLQMNSLKPEVTAVYYCNAVYRYYPFDYWGQGTQVTVSS ... high polyreactivity
QVQLVESGGGLVQAGGSLRLSCAASGIIIVRYAMGWYRQAPGKERELVAAISRRGGSTYYADSVKGRFTISRDNAKNTVSLQMNSLKPEDTAVYYCAALLGDITGYDYWGQGTQVTVSS ... high polyreactivity

---

# method.description: yeast display, Sf9 membrane polyspecificity reagent, FACS + sequencing; frameworks hold sequencing errors
readout.name: polyreactivity (PSR sort gate)

QVQIVESGGGLFQAGGSLRISCAASGSTIRANPMGWYRQAPGKERELVAAITKNGGSTYYADSVKGRYTISRDNAKYTVYLPMNTLIPEDNGVYYCAARRSSRRPPYYYWGQGTQVTVSS ... high polyreactivity
QVQLVESGGGLVQAGGSLRLSCAASGSTFFRNAMGWYRQAPGKERELVAAISKSGTSTYYADSVKGRFTISRDNAKNNVYLQMNSLKPEDTAVYYCAKYGFCYPQSYAYYYWGQGTQVTVSS ... high polyreactivity
